Kd values, listed per item
molecular target: T1, RSV postfusion F, subtype B (postF trimer) (Respiratory syncytial virus subtype B, UniProt P13843 26-513); experiment: BLI, IgG apparent affinity
T1 construct: also called Postfusion subtype B
Note: unit nM is implicit; provide only the numeric part.

See these solved cases before continuing.
binder="ADI-21073 (antibody, V domains shown) VH: EVQLVESGGGLVRPGRSLRLSCAASGFTFSMFSMNWVRQAPGKGLEWLAYIGGSGSTIDYANSVSGRFTISRDNAKNSLYLQMNSLRDEDTAVYYCARIGLQTYNSHSSSSSPARAFDVWGQGTTVTVSS VL: DIVLTQSPSSLSASVGDRVTITCRASQSIGRFLNWYQQKPGKAPKLLIYAASSLESGVPSRFSGSGSGTQFSLTISSLQPEDFTTYYCQQSYSTPTTFGGGTKVDIK" reported_value=0.675
binder="ADI-21076 (antibody, V domains shown) VH: EVQLVESGGGLVRPGGSLRLSCAASGFTFSSYAMDWVRQAPGKGLEWVSSISASSSFISYTDSVKGRFTISRDNAKNSLFLQMDNVTAEDTAVYYCARDYYESGRYFYGNPFDIWGQGTMVTVSS VL: QPVLTQPPSVSGAPGQRVTISCTGSGSNIGAGFDVHWYQQLPGTAPKLLIYANSDRPSGVPDRFSASKSGTSASLAITGLQAEDEAHYYCQSYDNSLGGLCVFGTGTKLTVL" reported_value=6.28

Please look at the following binder next.
Item under review: ADI-21085 (antibody, V domains shown, also called Ab 330) VH: EVQLVETGGGLVKPGGSLRLSCEASGFNFRSYSMNWVRQAPGKGLEWVSSISASSSYINYADSVKGRFTISRDNSKNSLYLQMNSLRAEDTGVYYCARVLVHYYYGMDVWGQGTTVTVSS VL: QSVLTQPPSVSAAPGQRVTISCTGTSSNIGAGYDVHWYQQLPGRAPKLLILGNNNRPSGVPDRFSGSKSGTSASLAITGLQAEDEADYYCQTYDKTLMEIFGGGTKLTVL . Reported Kd? 6.24
